All figures here come from patent US7196110B2.

Target: PDGF-receptor beta enzyme comprising the tyrosine kinase domain (Homo sapiens)
Construct: from amino acid 545 to 1106 of GenBank Access NO: AAA36427
Sequence (P09619 545-1106): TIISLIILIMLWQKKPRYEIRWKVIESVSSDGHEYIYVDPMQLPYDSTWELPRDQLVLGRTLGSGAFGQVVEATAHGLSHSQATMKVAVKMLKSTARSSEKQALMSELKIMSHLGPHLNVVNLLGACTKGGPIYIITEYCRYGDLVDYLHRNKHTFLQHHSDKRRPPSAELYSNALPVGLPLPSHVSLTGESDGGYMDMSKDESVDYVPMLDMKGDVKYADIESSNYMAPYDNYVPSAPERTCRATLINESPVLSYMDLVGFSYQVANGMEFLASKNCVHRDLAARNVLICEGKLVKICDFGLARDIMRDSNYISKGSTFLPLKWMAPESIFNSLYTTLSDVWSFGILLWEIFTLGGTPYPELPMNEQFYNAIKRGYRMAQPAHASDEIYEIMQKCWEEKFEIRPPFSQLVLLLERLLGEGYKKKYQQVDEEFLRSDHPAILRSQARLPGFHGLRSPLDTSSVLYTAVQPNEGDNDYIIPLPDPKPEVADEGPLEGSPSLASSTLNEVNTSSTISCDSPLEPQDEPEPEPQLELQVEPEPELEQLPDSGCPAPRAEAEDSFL
Assay: Inhibition of PDGF-receptor kinase activity (cell-free, PLC1 peptide, 33P Flashplate)
Type: biochemical
Conditions: PDGF-R kinase activity; read-out: IC50
readout.name: IC50 (µM)

In [3]: df
Out[3]:
                                   molecule  quantitative_result
0  COc1ccc(OC)c(CNc2[nH]nc3c2Cc2cc(OC)c(OC)cc2-3)c1 [Compound 274]                 2.61
1  COc1cccc(Nc2[nH]nc3c2Cc2cc(OCC(O)CO)c(OC)cc2-3)c1 (stereo not drawn) [Compound 260]               0.0015
2  COc1cc2c(cc1OC)-c1c(c(Nc3cccc(F)c3)nn1C(=O)CO)C2 [Compound 432]                0.038

a. COc1cc2c(cc1OC)-c1c(c(Nc3cccc(F)c3)nn1Cc1ccc(OC(C)=O)cc1)C2 [Compound 498]
b. COc1cc2c(cc1OC)-c1n[nH]c(Nc3cccc(C(=O)NCCCN4CCCC4)c3)c1C2 [Compound 298]
c. CNC(=O)CCCC(=O)n1nc(Nc2cccc(F)c2)c2c1-c1cc(OC)c(OC)cc1C2 [Compound 506]
d. COc1cc2c(cc1OC)C(C)(C)c1c-2n[nH]c1Nc1cccc(Br)c1 [Compound 485]
### Prompt Rank items: key IC50, increasing. List the labels in the requested order.
### Response c, b, a, d
